These data points were gathered from the supplement of paper PMC13380429.

Tested on: U2OS
experiment notes: drug sensitivity score (DSS) for viability; higher = more toxic; extreme values may be limits of the assay
protocol conditions: 72 h
endpoint label: drug sensitivity score
Please state the value as a number alone, without comment.

{"columns": ["molecule", "drug sensitivity score"],
 "data": [
  ["Oc1ccc(/C=C/c2cc(O)cc(O)c2)cc1", 0],
  ["O=C(O)c1ccccc1Nc1cccc(OCc2ccc3ccccc3n2)c1", 0],
  ["CSc1ccc2c(c1)[C@H](N1CCN(C)CC1)Cc1ccccc1S2 (racemic) [metitepine]", 0],
  ["O=C(N[C@H](CO)[C@H](O)c1ccc([N+](=O)[O-])cc1)C(Cl)Cl", 0],
  ["CC[C@]12C=CCN3CC[C@@]4(c5cc([C@@]6(C(=O)OC)C[C@@H]7C[C@@H](C(C)(F)F)CN(Cc8c6[nH]c6ccccc86)C7)c(OC)cc5N(C)[C@H]4[C@@](O)(C(=O)OC)[C@@H]1OC(C)=O)[C@@H]32 [Vinflunine Ditartrate]", 11.3]
]}

The record that follows has no drug sensitivity score shown yet.
Entry NNCCc1ccccc1 , drug sensitivity score reported as 0

* * *

Tested on: U2OS
experiment notes: cell viability relative to DMSO; higher = less toxic
protocol conditions: 72 h; 1000 nM
endpoint label: cell viability (%)
Value expressed in %; do not type the unit.

Below, 5 compounds whose answers are already recorded.
{"columns": ["compound", "unit name", "cell viability"],
 "data": [
  ["CC[N+](C)(CC)CC(=O)Nc1c(C)cccc1C [N-methyllidocaine-iodide]", "%", 97.4],
  ["Cc1c(C(=O)NCc2cccnc2)nn(-c2ccc(Cl)cc2Cl)c1-c1ccc(Cl)cc1", "%", 88.8],
  ["Oc1ccc(Cl)cc1Cc1cc(Cl)ccc1O", "%", 99.7],
  ["COc1ccc(S(=O)(=O)Nc2cc(Cl)cc(Cl)c2OC)cc1N1CCNCC1", "%", 96.3],
  ["Cc1ccc(C(=O)Nc2ccc(CN3CCN(C)CC3)c(C(F)(F)F)c2)cc1C#Cc1cnc2[nH]ncc2c1", "%", 32.5]
]}

Entry Clc1ccc(C2(c3ccc(-c4cn[nH]c4)cc3)CCNCC2)cc1 , cell viability reported as 90.3

Entry C[C@@H]1CN(CCCn2c3ccccc3c3ccccc32)C[C@H](C)N1 , cell viability reported as 96.8

Entry O=C1C=C2C=C[C@@H]3C[C@@]2(O1)[C@H]1CCCCN31 , cell viability reported as 95.1

Entry CC[C@]12C=CCN3CC[C@@]4(c5cc([C@@]6(C(=O)OC)C[C@@H]7C[C@@H](C(C)(F)F)CN(Cc8c6[nH]c6ccccc86)C7)c(OC)cc5N(C)[C@H]4[C@@](O)(C(=O)OC)[C@@H]1OC(C)=O)[C@@H]32 [Vinflunine Ditartrate] , cell viability reported as 48.6

Entry CCNC(=O)[C@@H]1CCCN1C(=O)[C@H](CCCNC(=N)N)NC(=O)[C@H](CC(C)C)NC(=O)[C@@H](CC(C)C)NC(=O)[C@H](Cc1ccc(O)cc1)NC(=O)[C@H](CO)NC(=O)[C@H](Cc1c[nH]c2ccccc12)NC(=O)[C@H](Cc1c[nH]cn1)NC(=O)[C@@H]1CCC(=O)N1 [leuprolide] , cell viability reported as 97

Entry COC(=O)[C@@]12OC[C@]34[C@H]([C@@H](O)[C@@H]1O)[C@@]1(C)CC(=O)C(O)=C(C)[C@@H]1C[C@H]3OC(=O)[C@H](OC(=O)/C=C(\C)C(C)C)[C@@H]24 [bruceantin] , cell viability reported as 1.8

Entry Cc1ccc(NCCCc2ccccc2)c(N)c1 , cell viability reported as 102

* * *

System: Caco-2
experiment notes: cell viability relative to DMSO; higher = less toxic
protocol conditions: 72 h; 100 nM
Mark YES for cell viability under 90%, NO if at or over.

Below, 5 compounds whose answers are already recorded.
{"columns": ["compound", "tgt", "group"],
 "data": [
  ["Cc1sc2c(c1C)C(c1ccc(Cl)cc1)=N[C@@H](CC(=O)Nc1ccc(O)cc1)c1nnc(C)n1-2", "Caco-2", "NO"],
  ["CCC(CC)[C@H](NC(C)=O)[C@@H]1[C@H](O)[C@@H](C(=O)O)C[C@H]1NC(=N)N", "Caco-2", "NO"],
  ["COc1cc(-c2ccc(=O)[nH]n2)ccc1OC(F)F", "Caco-2", "NO"],
  ["Cc1cc2c(C(C)C)c(O)c(O)c(C=O)c2c(O)c1-c1c(C)cc2c(C(C)C)c(O)c(O)c(C=O)c2c1O", "Caco-2", "NO"],
  ["Cn1c2cc([S+](C)[O-])sc2c2cnn(Cc3cccc(N)c3)c(=O)c21 (stereo not drawn)", "Caco-2", "NO"]
]}

Qu. Lab note: confirm whether the reported cell viability for this compound is below 90%, equality not counting. compound: Cc1ccc(C(=O)Nc2ccc(CN3CCN(C)CC3)c(C(F)(F)F)c2)cc1C#Cc1cnc2[nH]ncc2c1
Ans. YES

* * *

Reported cell viability is given for each of the following molecules.
Test system: Calu-3
experiment notes: cell viability relative to DMSO; higher = less toxic
protocol conditions: 72 h; 10000 nM
Value expressed in %; do not type the unit.

Below, 2 molecules whose answers are already recorded.
{"columns": ["molecule", "unit name", "cell viability"],
 "data": [
  ["CCCN(CCC)C(=O)C1=Cc2ccc(-c3ccc(C(=O)N4CCCC4)cc3)cc2N=C(N)C1 [motolimod]", "%", 98.1],
  ["O=C1NC(c2cccc([N+](=O)[O-])c2)=CCN1c1ccccc1O [icilin]", "%", 108]
]}

Entry c1cc(-c2cnn3cc(-c4ccc(N5CCNCC5)cc4)cnc23)c2cccnc2c1 , cell viability reported as 6.2

Entry CCNC(=O)[C@@H]1CCCN1C(=O)[C@H](CCCNC(=N)N)NC(=O)[C@H](CC(C)C)NC(=O)[C@@H](CC(C)C)NC(=O)[C@H](Cc1ccc(O)cc1)NC(=O)[C@H](CO)NC(=O)[C@H](Cc1c[nH]c2ccccc12)NC(=O)[C@H](Cc1c[nH]cn1)NC(=O)[C@@H]1CCC(=O)N1 [leuprolide] , cell viability reported as 103

Entry NC1CCN(c2c(F)cc3c(=O)c(C(=O)O)cn(C4CC4)c3c2Cl)C1 (stereo not given) [clinafloxacin] , cell viability reported as 99.5

* * *

Tested on: Vero E6
experiment notes: cell viability relative to DMSO; higher = less toxic
protocol conditions: 72 h; 1000 nM
Reported cell viability is given for each of the following compounds.
Value expressed in %; do not type the unit.

{"columns": ["compound", "unit name", "experimental value"],
 "data": [
  ["Nc1ncnc2c1ncn2C1CCCO1 (configuration not stated)", "%", 98.8],
  ["NCc1cc(O)no1 [muscimol]", "%", 97.1],
  ["COc1cc(N2CCC(N3CCN(C)CC3)CC2)ccc1Nc1ncc(Cl)c(Nc2ccccc2P(C)(C)=O)n1 [brigatinib]", "%", 94.5],
  ["N#CC(=C(/N)Sc1ccccc1N)/C(C#N)=C(/N)Sc1ccccc1N [U-0126]", "%", 88.6],
  ["CC(C)(C)NC(=O)[C@@H]1C[C@@H]2CCCC[C@@H]2CN1C[C@@H](O)[C@H](Cc1ccccc1)NC(=O)[C@H](CC(N)=O)NC(=O)c1ccc2ccccc2n1 [saquinavir]", "%", 85.1],
  ["O=C(OC[C@H]1O[C@@H](OC(=O)c2cc(O)c(O)c(OC(=O)c3cc(O)c(O)c(O)c3)c2)[C@H](OC(=O)c2cc(O)c(O)c(OC(=O)c3cc(O)c(O)c(O)c3)c2)[C@@H](OC(=O)c2cc(O)c(O)c(OC(=O)c3cc(O)c(O)c(O)c3)c2)[C@@H]1OC(=O)c1cc(O)c(O)c(OC(=O)c2cc(O)c(O)c(O)c2)c1)c1cc(O)c(O)c(OC(=O)c2cc(O)c(O)c(O)c2)c1 [tannic-acid]", "%", 77.4]
]}

Entry CNS(=O)(=O)CCc1ccc2[nH]cc(C3CCN(C)CC3)c2c1 [naratriptan] , cell viability reported as 99.7

* * *

Reported cell viability is given for each of the following compounds.
Test system: U2OS
experiment notes: cell viability relative to DMSO; higher = less toxic
protocol conditions: 72 h; 10000 nM
Value expressed in %; do not type the unit.

Below, 5 compounds whose answers are already recorded.
{"columns": ["compound", "tgt", "unit name", "experimental value"],
 "data": [
  ["COc1cc2c(cc1OC)[C@H](C)NCC2 [Isoquinoline,-6,7-dimethoxy-1-methyl-1,2,3,4-tetrahydro,]", "U2OS", "%", 102],
  ["N#Cc1cnc2cnc(NCc3cccnc3)cc2c1Nc1ccc(F)c(Cl)c1", "U2OS", "%", 85.2],
  ["COC[C@H](NC(=O)c1cnc(C)s1)C(=O)N[C@@H](COC)C(=O)N[C@@H](Cc1ccccc1)C(=O)[C@@]1(C)CO1", "U2OS", "%", -0.3],
  ["CCOC(=O)/C=C(C)/C=C/C=C(C)/C=C/c1c(C)cc(OC)c(C)c1C [etretinate]", "U2OS", "%", 99.5],
  ["O=C(NC(Cc1cc(=O)[nH]c2ccccc12)C(=O)O)c1ccc(Cl)cc1 (stereo not given) [rebamipide]", "U2OS", "%", 110]
]}

Entry CSCC[C@H](NC(=O)[C@H](CC(C)C)NC(=O)CNC(=O)[C@H](Cc1ccccc1)NC(=O)[C@H](Cc1ccccc1)NC(=O)[C@H](CCC(N)=O)NC(=O)[C@H](CCC(N)=O)NC(=O)[C@@H]1CCCN1C(=O)[C@H](CCCCN)NC(=O)[C@@H]1CCCN1C(=O)[C@@H](N)CCCN=C(N)N)C(N)=O , cell viability reported as 98.2

Entry Nc1ncnc2c1ncn2C1CCCO1 (stereo not given) , cell viability reported as 98.9

Entry CC(C)(C)NC(=O)[C@@H]1C[C@@H]2CCCC[C@@H]2CN1C[C@@H](O)[C@H](Cc1ccccc1)NC(=O)[C@H](CC(N)=O)NC(=O)c1ccc2ccccc2n1 , cell viability reported as 89.8

Entry CCCNC(C)C(=O)Nc1c(C)csc1C(=O)OC (stereo not given) , cell viability reported as 105

Entry COc1cc2c(cc1OC)-c1c(C)c3ccc(OC)c(OC)c3c[n+]1CC2 [dehydrocorydaline] , cell viability reported as 97.1
